Taken from ChEMBL document CHEMBL3580601.

experimental target: Coagulation factor XI (Homo sapiens)
Sequence (P03951 19-387 limits assumed): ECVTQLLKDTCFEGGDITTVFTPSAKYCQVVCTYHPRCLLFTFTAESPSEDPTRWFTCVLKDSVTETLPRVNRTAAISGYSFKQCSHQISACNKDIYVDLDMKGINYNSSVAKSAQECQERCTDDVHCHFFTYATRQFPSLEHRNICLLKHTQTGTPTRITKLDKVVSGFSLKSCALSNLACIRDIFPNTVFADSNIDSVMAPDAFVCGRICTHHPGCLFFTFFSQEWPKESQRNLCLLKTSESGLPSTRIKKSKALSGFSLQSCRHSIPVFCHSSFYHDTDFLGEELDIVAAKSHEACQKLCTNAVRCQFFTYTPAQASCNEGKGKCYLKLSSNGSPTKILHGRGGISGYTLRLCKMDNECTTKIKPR
Sequence (P03951 388-625 limits assumed): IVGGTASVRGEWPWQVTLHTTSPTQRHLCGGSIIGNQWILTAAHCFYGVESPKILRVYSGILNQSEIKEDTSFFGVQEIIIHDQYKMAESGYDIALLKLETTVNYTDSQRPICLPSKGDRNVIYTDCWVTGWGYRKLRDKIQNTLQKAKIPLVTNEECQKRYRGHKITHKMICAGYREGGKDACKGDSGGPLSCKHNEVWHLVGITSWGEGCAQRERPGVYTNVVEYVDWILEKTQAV
test protocol: Inhibition of human coagulation factor 11a using p-nitroaniline as substrate assessed as substrate hydrolysis by spectrophotometry
Attribute: Ki
Quick note: give the figure in nM, leave out the unit.

Sample answers from the record:
INSERT INTO assay_data (line_notation, unit_of_measure, recorded_number) VALUES
  ('COC(=O)Nc1ccc(-c2nc([C@H](CC(=O)N3CCN(C(C)=O)CC3)NC(=O)/C=C/c3cc(Cl)ccc3-n3cnnn3)[nH]c2Cl)cc1', 'nM', 0.6),
  ('O=C(/C=C/c1cc(Cl)ccc1-n1cnnn1)N[C@@H](Cc1ccccc1)c1nc(-c2ccc3c(c2)CCC(=O)N3)c(Cl)[nH]1', 'nM', 19),
  ('CN1CCN(C(=O)C[C@H](NC(=O)/C=C/c2cc(Cl)ccc2-n2cnnn2)c2nc(-c3ccc4[nH]c(=O)cc(O)c4c3)c(Cl)[nH]2)CC1', 'nM', 0.04);

Bench note, Coagulation factor XI (Homo sapiens): O=C(/C=C/c1cc(Cl)ccc1-n1cnnn1)N[C@@H](Cc1ccccc1)c1nc(-c2ccc3[nH]c(=O)cc(O)c3c2)c(Cl)[nH]1 , Ki reads 0.18

Bench note, Coagulation factor XI (Homo sapiens): COC(=O)Nc1ccc(-c2nc([C@H](CC(=O)N3CCS(=O)(=O)CC3)NC(=O)/C=C/c3cc(Cl)ccc3-n3cnnn3)[nH]c2Cl)cc1 , Ki reads 0.3

Bench note, Coagulation factor XI (Homo sapiens): COC(=O)Nc1ccc(-c2nc([C@H](Cc3ccccc3)NC(=O)/C=C/c3cc(Cl)ccc3-n3cnnn3)[nH]c2Cl)cc1 , Ki reads 3.7

###

test protocol: Inhibition of rabbit coagulation factor 11a using p-nitroaniline as substrate assessed as substrate hydrolysis at 37 degC by spectrophotometry
Parameters: species or system Oryctolagus cuniculus
endpoint: Ki (nM)
Quick note: give the figure in nM, leave out the unit.

Item: CN1CCN(C(=O)C[C@H](NC(=O)/C=C/c2cc(Cl)ccc2-n2cnnn2)c2nc(-c3ccc4[nH]c(=O)cc(O)c4c3)c(Cl)[nH]2)CC1 | Ki: 0.58

###

test protocol: Half life in rat at 1 mg/kg, iv
Type: ADME, organism-based
experimental context: in vivo
endpoint: half-life (h)
Quick note: give the figure in h, leave out the unit.

Item: CN1CCN(C(=O)C[C@H](NC(=O)/C=C/c2cc(Cl)ccc2-n2cnnn2)c2nc(-c3ccc4[nH]c(=O)cc(O)c4c3)c(Cl)[nH]2)CC1.O=C(O)C(F)(F)F | half-life: 1.1

###

test protocol: Unbound fraction in human plasma
Type: ADME, cell-free
endpoint: fraction unbound
# answer = number (no unit)

Item: CN1CCN(C(=O)C[C@H](NC(=O)/C=C/c2cc(Cl)ccc2-n2cnnn2)c2nc(-c3ccc4[nH]c(=O)cc(O)c4c3)c(Cl)[nH]2)CC1 | fraction unbound: 0.08

###

experimental target: Coagulation factor IX (Homo sapiens, UniProt P00740)
Sequence (P00740 47-191 limits assumed): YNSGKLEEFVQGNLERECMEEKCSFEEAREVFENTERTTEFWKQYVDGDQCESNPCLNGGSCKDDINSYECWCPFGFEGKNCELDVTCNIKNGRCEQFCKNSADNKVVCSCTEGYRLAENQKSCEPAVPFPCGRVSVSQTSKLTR
Sequence (P00740 227-461 limits assumed): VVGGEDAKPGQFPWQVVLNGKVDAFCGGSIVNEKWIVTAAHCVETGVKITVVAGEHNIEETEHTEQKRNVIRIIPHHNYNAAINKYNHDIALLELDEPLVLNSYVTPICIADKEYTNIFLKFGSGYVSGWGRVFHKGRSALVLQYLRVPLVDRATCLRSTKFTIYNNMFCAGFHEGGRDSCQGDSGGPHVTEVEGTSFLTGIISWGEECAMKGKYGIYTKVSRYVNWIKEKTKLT
endpoint: Ki

Bench note, Coagulation factor IX (Homo sapiens, UniProt P00740): CN1CCN(C(=O)C[C@H](NC(=O)/C=C/c2cc(Cl)ccc2-n2cnnn2)c2nc(-c3ccc4[nH]c(=O)cc(O)c4c3)c(Cl)[nH]2)CC1 , Ki reads > 60 µM

###

test protocol: Unbound fraction in rabbit plasma
Type: ADME, cell-free, Oryctolagus cuniculus
endpoint: fraction unbound
# answer = number (no unit)

Item: CN1CCN(C(=O)C[C@H](NC(=O)/C=C/c2cc(Cl)ccc2-n2cnnn2)c2nc(-c3ccc4[nH]c(=O)cc(O)c4c3)c(Cl)[nH]2)CC1 | fraction unbound: 0.07
